I'd appreciate it if you could supply IC50 values for the items below.
# system_under_test: RAC-alpha serine/threonine-protein kinase (Homo sapiens)
# Sequence (P31749 whole entry): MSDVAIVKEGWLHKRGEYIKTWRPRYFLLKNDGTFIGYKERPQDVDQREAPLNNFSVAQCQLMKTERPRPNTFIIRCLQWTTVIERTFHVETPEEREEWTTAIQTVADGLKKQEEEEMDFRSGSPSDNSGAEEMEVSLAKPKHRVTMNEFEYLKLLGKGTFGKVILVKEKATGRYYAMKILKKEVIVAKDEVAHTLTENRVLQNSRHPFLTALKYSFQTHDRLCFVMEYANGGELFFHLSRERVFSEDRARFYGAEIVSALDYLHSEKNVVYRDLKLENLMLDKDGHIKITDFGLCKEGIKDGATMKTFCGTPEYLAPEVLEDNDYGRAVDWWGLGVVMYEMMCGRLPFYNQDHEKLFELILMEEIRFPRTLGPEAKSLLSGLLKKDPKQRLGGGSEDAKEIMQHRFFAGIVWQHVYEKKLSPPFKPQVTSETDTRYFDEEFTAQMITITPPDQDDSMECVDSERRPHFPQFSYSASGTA
# protocol_description: Inhibition of phosphorylation of T308-PKB in human U87MG cells by ELISA
Answer with a number only, understood to be in nM.

Reported IC50 for Cn1c(=O)n(-c2ccc(C(C)(C)C#N)cc2)c2c3cc(C#Cc4cccnc4)ccc3ncc21 was 33

CCc1nc2cnc3ccc(C#Cc4cccnc4)cc3c2n1-c1ccc(CC#N)cc1 yielded IC50 of 138

The recorded IC50 for Cc1nc2cnc3ccc(C#Cc4cccnc4)cc3c2n1-c1ccc(CC#N)cc1 is 77

Lab note: measured IC50 of Cc1nc2cnc3ccc(C#Cc4cccnc4)cc3c2n1-c1ccc(C(C)C#N)cc1 (centres undefined) was 45
